The measurements presented in this section are drawn from PubChem BioAssay (EPA / NIEHS).

measurement notes: ACEA_AR_agonist_AUC_viability: ACEA Biosciences xCELLigence Real-Time Cell Analysis on Androgen Receptor Agonism for Viability (AID 2283775)
Records with an inconclusive call do not appear. The source made the active and inactive calls. Rule for the calls: active = hit-call score of the fitted dose curve at least 0.9, where 1 is the maximum; inconclusive = response in the unintended direction; inactive = score below 0.9.
Your response should consist of one outcome taken from Yes = active, No = inactive

Previously resolved entries follow.
• Oc1ccc2c(c1)OC[C@@H](N1CCC(O)(c3ccc(F)cc3)CC1)[C@H]2O = No
• Cc1cccc(Nc2cc(Cl)nc(SCC(=O)O)n2)c1C = No
• c1cc(-c2ccncc2)ccn1 = No
• O=C(OCCCCCOC(=O)c1ccccc1)c1ccccc1 = Yes
• CCCCC(CC)COC(=O)CC(C(=O)OCC(CC)CCCC)S(=O)(=O)O (configuration not stated) = Yes
• Cc1ccc(N(C)C)cc1 = No

stdin: Identify the outcome logged in this assay for the compound shown: `Nc1ccccc1N`
stdout: No

stdin: Outcome logged for `CCOc1ccc2c(c1)C(C)=CC(C)(C)N2` in this assay:
stdout: Yes

stdin: Identify the outcome logged in this assay for the compound shown: `CC(C)(C)c1cc(O)c(C(C)(C)C)cc1O`
stdout: Yes

stdin: Assay result, entry CC1(C)CC(N=C=O)CC(C)(CN=C=O)C1 (configuration not stated) — outcome?
stdout: Yes

stdin: Call for entry `COc1cccc2c1C(=O)c1c(O)c3c(c(O)c1C2=O)C[C@@](O)(C(=O)CO)C[C@@H]3O[C@H]1C[C@H](N)[C@H](O)[C@H](C)O1` :
stdout: Yes

stdin: Could you kindly confirm the outcome this assay logged for `CCNc1cccc(C)c1` ?
stdout: No
